molecular target: human DGKζ (Homo sapiens); construct: made in house; host or cells: Sf9 insect cells, baculovirus; assay: Human DGKζ kinase activity inhibition assay (ADP-Glo); type: biochemical; conditions: example compounds; recombinant full-length human DGKζ, 1,2-dioleoyl-sn-glycerol 7 μM, ATP 55 μM, 20 min at 22° C.; read-out: IC50 values of examples in in vitro human DGKζ kinase activity inhibition assays
Sequence (Q13574 with tags, fused parts or gaps): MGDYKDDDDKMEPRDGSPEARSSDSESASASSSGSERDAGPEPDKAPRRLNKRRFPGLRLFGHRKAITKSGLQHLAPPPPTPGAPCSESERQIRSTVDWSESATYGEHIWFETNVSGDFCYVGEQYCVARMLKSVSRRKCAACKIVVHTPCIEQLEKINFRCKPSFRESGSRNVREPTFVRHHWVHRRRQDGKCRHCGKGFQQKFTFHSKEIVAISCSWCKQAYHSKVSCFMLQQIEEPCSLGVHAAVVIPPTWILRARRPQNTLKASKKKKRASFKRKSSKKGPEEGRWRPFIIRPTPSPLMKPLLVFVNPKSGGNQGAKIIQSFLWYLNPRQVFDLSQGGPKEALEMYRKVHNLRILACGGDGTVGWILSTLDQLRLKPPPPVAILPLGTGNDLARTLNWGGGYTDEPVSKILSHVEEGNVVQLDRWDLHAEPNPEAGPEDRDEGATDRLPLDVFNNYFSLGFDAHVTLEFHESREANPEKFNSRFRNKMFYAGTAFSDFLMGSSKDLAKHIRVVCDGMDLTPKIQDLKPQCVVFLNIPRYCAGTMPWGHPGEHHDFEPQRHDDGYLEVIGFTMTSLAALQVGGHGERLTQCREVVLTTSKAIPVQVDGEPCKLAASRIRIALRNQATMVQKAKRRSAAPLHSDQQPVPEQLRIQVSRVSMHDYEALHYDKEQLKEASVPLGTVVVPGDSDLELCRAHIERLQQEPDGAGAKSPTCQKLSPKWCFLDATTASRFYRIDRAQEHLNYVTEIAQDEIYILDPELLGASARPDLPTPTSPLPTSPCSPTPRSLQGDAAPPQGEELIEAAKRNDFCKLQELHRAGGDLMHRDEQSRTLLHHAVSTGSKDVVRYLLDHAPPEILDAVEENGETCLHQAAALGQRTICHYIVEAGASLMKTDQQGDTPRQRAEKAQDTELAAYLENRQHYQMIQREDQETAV
Readout: IC50 (nM)

• CC(C(N)=O)N(c1ccc(F)cc1)c1nc(N)c(C(=O)c2cc(C(=O)Nc3cccnc3)no2)s1 (racemic) = 300
• CC(C(N)=O)N(c1ccc(F)cc1)c1nc(N)c(C(=O)c2cc(OCC3CCC3)no2)s1 (racemic) = 31
• CC(C(N)=O)N(c1ccc(F)cc1)c1nc(N)c(C(=O)c2cc(C(=O)NC3(C)CCC3)no2)s1 (single isomer, unassigned) [Example 30.1] = 29
• Cc1noc(C(=O)c2sc(N(c3ccc(F)cc3)C(C)C(N)=O)nc2N)n1 (racemic) = 412

###

Target: human DGKζ (Homo sapiens)
Construct: made in house; host or cells: Sf9 insect cells, baculovirus
Assay: Human DGKζ kinase activity inhibition assay (ADP-Glo)
Assay type: biochemical
Conditions: example compounds; recombinant full-length human DGKζ, 1,2-dioleoyl-sn-glycerol 7 μM, ATP 55 μM, 20 min at 22° C.; read-out: IC50 values of examples in in vitro human DGKζ kinase activity inhibition assays
Protocol: Human diacylglycerol kinase zeta (DGKζ) inhibitory activity of compounds of the present invention was quantified employing the human DGKζ kinase activity assay as described in the following paragraphs. In essence, the enzyme activity was measured by quantification of the adenosine-di-phosphate (ADP) generated as a co-product of the enzyme reaction via the “ADP-Glo™ Kinase Assay” kit from the company Promega. […]
pIC50: −log10 of the molar value.
Quick reference: pIC50 of the listed items.
Readout: pIC50

• CC(C(N)=O)N(c1ccc(F)cc1)c1nc(N)c(C(=O)c2cc(C(=O)NCC(F)(F)F)no2)s1 (racemic) = 6.67
• CC(C)c1noc(C(=O)c2sc(N(c3ccc(F)cc3)C(C)C(N)=O)nc2N)n1 (racemic) = 7.55
• CC(C(N)=O)N(c1ccc(F)cc1)c1nc(N)c(C(=O)c2cc(-c3ccc(Cl)cc3Cl)no2)s1 (racemic) = 7.43
• CC(C(N)=O)N(c1ccc(F)cc1)c1nc(N)c(C(=O)c2nc(-c3cnn(C)c3)no2)s1 (racemic) = 6.49
• CC(C(N)=O)N(c1ccc(F)c(F)c1)c1nc(N)c(C(=O)c2cc(C(=O)NC3CCCC3)no2)s1 (single isomer, unassigned) [Example 46.2] = 5.64
• Cc1cccc(-c2noc(C(=O)c3sc(N(c4ccc(F)cc4)C(C)C(N)=O)nc3N)n2)c1C (racemic) = 7.85
• CC(C(N)=O)N(c1ccc(F)cc1)c1nc(N)c(C(=O)c2cc(C(=O)Nc3ccccn3)no2)s1 (racemic) = 7.05
• CC(C(N)=O)N(c1ccc(F)cc1)c1nc(N)c(C(=O)c2cc(CN3CC(F)(F)C3)no2)s1 (racemic) = 6.95
• CC(C(N)=O)N(c1ccc(F)cc1)c1nc(N)c(C(=O)c2nc(-c3ccccn3)no2)s1 (racemic) = 6.51
• CC(C(N)=O)N(c1ccc(F)cc1)c1nc(N)c(C(=O)c2nc(-c3ccc(Cl)cc3)no2)s1 (racemic) = 8.05
• CC(C(N)=O)N(c1ccc(F)cc1)c1nc(N)c(C(=O)c2cc(Br)no2)s1 (racemic) [Example 6] = 6.91
• CC(C(N)=O)N(c1ccc(F)c(F)c1)c1nc(N)c(C(=O)c2cc(C(=O)NC3CCCC3)no2)s1 (racemic) [Example 46] = 7.11
• CC(C(N)=O)N(c1ccc(F)cc1)c1nc(N)c(C(=O)c2cc(CN3CC(F)C3)no2)s1 (racemic) = 6.49
• CC(C(N)=O)N(c1ccc(F)cc1)c1nc(N)c(C(=O)c2cc(CN3CCC(F)(F)CC3)no2)s1 (racemic) = 7.59
• CC(C(N)=O)N(c1ccc(F)cc1)c1nc(N)c(C(=O)c2nc(-c3cccc(F)c3)no2)s1 (racemic) = 7.77
• CC(C(N)=O)N(c1ccc(F)cc1)c1nc(N)c(C(=O)c2cc(C(=O)NC3CCC(C)(C)C3)no2)s1 (racemic) = 7.03
• CC(C(N)=O)N(c1ccc(F)cc1)c1nc(N)c(C(=O)c2cc(C(=O)NC3(C)CCCC3)no2)s1 (racemic) = 7.28
• CC(C(N)=O)N(c1ccc(F)cc1)c1nc(N)c(C(=O)c2cc(-c3ccc(Cl)cc3)no2)s1 (racemic) = 7.17
• CCOC(=O)c1cc(C(=O)c2sc(N(c3ccc(F)cc3)C(C)C(N)=O)nc2N)on1 (racemic) = 6.72
• CC(C(N)=O)N(c1ccc(F)cc1)c1nc(N)c(C(=O)c2cc(C(=O)Nc3cnn(C)c3)no2)s1 (racemic) = 6.03
• CC(C(N)=O)N(c1ccc(F)cc1)c1nc(N)c(C(=O)c2cc(OC3CCC3)no2)s1 (racemic) = 7.06
• CC(C(N)=O)N(c1ccc(F)c(F)c1)c1nc(N)c(C(=O)c2cc(C(=O)NC3(C)CCC3)no2)s1 (single isomer, unassigned) [Example 44.2] = 5.35
• CC(C(N)=O)N(c1ccc(F)cc1)c1nc(N)c(C(=O)c2cc(C(=O)N3CCCC3)no2)s1 (racemic) = 6.50
• CC(C(N)=O)N(c1ccc(F)cc1)c1nc(N)c(C(=O)c2cc(OC3CCC(F)(F)CC3)no2)s1 (racemic) = 7.77
• CC(C(N)=O)N(c1ccc(F)cc1)c1nc(N)c(C(=O)c2cc(C(=O)NC3(C)CCC3)no2)s1 (racemic) [Example 30] = 7.06
• CC(C(N)=O)N(c1ccc(F)cc1)c1nc(N)c(C(=O)c2cc(-c3ccccc3)no2)s1 (single isomer, unassigned) [Example 3.2] = 5.76
• CC(C(N)=O)N(c1ccc(F)cc1)c1nc(N)c(C(=O)c2cc(C(=O)NCC3CC3)no2)s1 (racemic) = 6.74
